assay: Rat brain distribution after oral administration of APRE (UPLC-MS/MS)
test.conditions: rat, brain, po, 4 g/kg
Listed here: items and their measured Tmax.

A selection of reference data follows.
>>> print(df.to_string())
                                   compound  obs_value
0  COc1c2ccoc2cc2oc(=O)ccc12 [Compound 3, bergapten]     1.21 h
1  CC(C)(O)[C@H]1Cc2cc3ccc(=O)oc3cc2O1 [Compound 12, nodakenetin]     5.33 h
2  COc1ccc2ccc(=O)oc2c1CC(O)C(C)(C)O (centres unmarked) [Compound 11, Meranzin hydrate]     1.29 h
3  O=c1ccc2cc3ccoc3cc2o1 [Compound 1, psoralen]     0.33 h

Now look at this one.
Query: Entry under review: CC(C)(O)[C@@H]1Cc2c(ccc3ccc(=O)oc23)O1 [Compound 5, columbianetin] . Reported Tmax?
Response: 4 h

* * *

assay: Stability of QC samples in rat brain homogenate (freeze-thaw, room temperature)
Format: physicochemical
test.conditions: rat brain QC 80 ng/mL, three freeze-thaw cycles, percentage remaining, n = 5
observation.type: Stability Freeze-thaw (%)
# unit: % | format: bare number

A selection of reference data follows.
>>> df
                                   compound       observation_type  units  obs_value
0  CC(C)(O)[C@H](O)COc1c2ccoc2cc2oc(=O)ccc12 [Compound 8, oxypeucedanin hydrate]  Stability Freeze-thaw      %      94.94
1  O=c1ccc2cc3ccoc3cc2o1 [Compound 1, psoralen]  Stability Freeze-thaw      %      96.22
2  C/C=C(/C)C(=O)OC(C)(C)[C@@H]1Cc2c(ccc3ccc(=O)oc23)O1 [Compound 7, columbianadin]  Stability Freeze-thaw      %      94.79
3  COc1c2ccoc2cc2oc(=O)ccc12 [Compound 3, bergapten]  Stability Freeze-thaw      %      85.30
4  CC(C)=CCOc1c2ccoc2cc2oc(=O)ccc12 [Compound 4, isoimperatorin]  Stability Freeze-thaw      %      93.10
5  CC=C(C)C(=O)OC(C(O)c1cc2ccc(=O)oc2cc1OC)C(C)(C)O (stereo not shown) [Compound 9, angelol B]  Stability Freeze-thaw      %      95.20

Now look at this one.
Query: Entry under review: COc1ccc2ccc(=O)oc2c1CC=C(C)C [Compound 10, osthole] . Reported Stability Freeze-thaw?
Response: 98.42

* * *

assay: Rat brain distribution after oral administration of APRE (UPLC-MS/MS)
test.conditions: rat brain, oral APRE 4 g/kg, mean ± SD, n = 6
Listed here: items and their measured AUC0→∞.

>>> print(df.to_string())
                       compound  observation_type                  obs_value
0  COc1ccc2ccc(=O)oc2c1CC=C(C)C            AUC0→∞  2105.63 ± 1100.15 µg·h/kg

Query: Entry under review: CC(C)=CCOc1c2ccoc2cc2oc(=O)ccc12 . Reported AUC0→∞?
Response: 21.56 ± 14.56 µg·h/kg

Query: Entry under review: CC(C)(O)[C@H]1Cc2cc3ccc(=O)oc3cc2O1 . Reported AUC0→∞?
Response: 1560.07 ± 730.91 µg·h/kg

Query: Entry under review: CC=C(C)C(=O)OC(C(O)c1cc2ccc(=O)oc2cc1OC)C(C)(C)O (stereo not drawn) . Reported AUC0→∞?
Response: 25.06 ± 8.03 µg·h/kg

Query: Entry under review: CC(C)(O)[C@H](O)COc1c2ccoc2cc2oc(=O)ccc12 [Compound 8, oxypeucedanin hydrate] . Reported AUC0→∞?
Response: 397.36 ± 66.83 µg·h/kg

Query: Entry under review: O=c1ccc2cc3ccoc3cc2o1 . Reported AUC0→∞?
Response: 371.95 ± 69.76 µg·h/kg

Query: Entry under review: CC(C)(O)[C@@H]1Cc2c(ccc3ccc(=O)oc23)O1 . Reported AUC0→∞?
Response: 16,664.04 ± 3662.67 µg/kg·h

Query: Entry under review: COc1c2ccoc2cc2oc(=O)ccc12 . Reported AUC0→∞?
Response: 449.85 ± 97.52 µg·h/kg

Query: Entry under review: COc1ccc2ccc(=O)oc2c1CC(O)C(C)(C)O (stereo not drawn) [Compound 11, Meranzin hydrate] . Reported AUC0→∞?
Response: 1948.10 ± 305.84 µg·h/kg

* * *

assay: Stability of QC samples in rat brain homogenate (freeze-thaw, room temperature)
Assay type: physicochemical
test.conditions: rat brain QC 80 ng/mL, room temperature 24 h, percentage remaining, n = 5
observation.type: Stability room temperature

A selection of reference data follows.
>>> df
                                   compound     obs_value
0  CC(C)(O)[C@H](O)COc1c2ccoc2cc2oc(=O)ccc12 [Compound 8, oxypeucedanin hydrate]   96.02±6.30%
1                     O=c1ccc2cc3ccoc3cc2o1  99.53±12.87%

Query: Entry under review: COc1c2ccoc2cc2oc(=O)ccc12 . Reported Stability room temperature?
Response: 86.01±3.16%

* * *

assay: Rat brain distribution after oral administration of APRE (UPLC-MS/MS)
test.conditions: rat, brain/plasma, po, 4 g/kg
Listed here: items and their measured Kp.
// return just the number, without any unit appended

A selection of reference data follows.
>>> df
                                   molecule  obs_value
0  COc1ccc2ccc(=O)oc2c1CC=C(C)C [Compound 10, osthole]       0.15
1  COc1c2ccoc2cc2oc(=O)ccc12 [Compound 3, bergapten]       0.08
2  CC(C)(O)[C@@H]1Cc2c(ccc3ccc(=O)oc23)O1 [Compound 5, columbianetin]       0.08
3  O=c1ccc2cc3ccoc3cc2o1 [Compound 1, psoralen]       0.56

Now look at this one.
Query: Entry under review: CC(C)(O)[C@H]1Cc2cc3ccc(=O)oc3cc2O1 [Compound 12, nodakenetin] . Reported Kp?
Response: 0.01

* * *

assay: Rat brain distribution after oral administration of APRE (UPLC-MS/MS)
test.conditions: rat brain, oral APRE 4 g/kg, mean ± SD, n = 6
Vz/F vs 10 g/kg: less than gives Yes; not less than gives No.

Some solved cases for reference:
>>> print(df.to_string())
                                   compound  group
0  O=c1ccc2cc3ccoc3cc2o1 [Compound 1, psoralen]    Yes
1  CC(C)=CCOc1c2ccoc2cc2oc(=O)ccc12 [Compound 4, isoimperatorin]     No
2  COc1ccc2ccc(=O)oc2c1CC=C(C)C [Compound 10, osthole]     No

Query: Hello, is Vz/F of the following compound strictly smaller than 10 g/kg? CC(C)(O)[C@@H]1Cc2c(ccc3ccc(=O)oc23)O1 [Compound 5, columbianetin]
Response: Yes

Query: Hello, is Vz/F of the following compound strictly smaller than 10 g/kg? CC(C)(O)[C@H]1Cc2cc3ccc(=O)oc3cc2O1 [Compound 12, nodakenetin]
Response: Yes

Query: Hello, is Vz/F of the following compound strictly smaller than 10 g/kg? COc1ccc2ccc(=O)oc2c1CC(O)C(C)(C)O (stereo not drawn) [Compound 11, Meranzin hydrate]
Response: Yes

Query: Hello, is Vz/F of the following compound strictly smaller than 10 g/kg? COc1c2ccoc2cc2oc(=O)ccc12 [Compound 3, bergapten]
Response: No

Query: Hello, is Vz/F of the following compound strictly smaller than 10 g/kg? CC=C(C)C(=O)OC(C(O)c1cc2ccc(=O)oc2cc1OC)C(C)(C)O (stereo not drawn) [Compound 9, angelol B]
Response: No

Query: Hello, is Vz/F of the following compound strictly smaller than 10 g/kg? CC(C)(O)[C@H](O)COc1c2ccoc2cc2oc(=O)ccc12 [Compound 8, oxypeucedanin hydrate]
Response: No

* * *

assay: Stability of QC samples in rat brain homogenate (freeze-thaw, room temperature)
Assay type: physicochemical
test.conditions: rat brain QC 5 ng/mL, three freeze-thaw cycles, percentage remaining, n = 5
Listed here: items and their measured Stability Freeze-thaw.
# unit: % | format: bare number

                       compound       observation_type  obs_value
0  COc1ccc2ccc(=O)oc2c1CC=C(C)C  Stability Freeze-thaw      95.53
1     COc1c2ccoc2cc2oc(=O)ccc12  Stability Freeze-thaw      89.97

Query: Entry under review: CC(C)=CCOc1c2ccoc2cc2oc(=O)ccc12 . Reported Stability Freeze-thaw?
Response: 104.96

Query: Entry under review: CC(C)(O)[C@@H]1Cc2c(ccc3ccc(=O)oc23)O1 . Reported Stability Freeze-thaw?
Response: 105.83

Query: Entry under review: CC(C)(O)[C@H](O)COc1c2ccoc2cc2oc(=O)ccc12 [Compound 8, oxypeucedanin hydrate] . Reported Stability Freeze-thaw?
Response: 96.57

Query: Entry under review: CC=C(C)C(=O)OC(C(O)c1cc2ccc(=O)oc2cc1OC)C(C)(C)O (centres unmarked) . Reported Stability Freeze-thaw?
Response: 101.51

Query: Entry under review: COc1ccc2ccc(=O)oc2c1CC(O)C(C)(C)O (centres unmarked) [Compound 11, Meranzin hydrate] . Reported Stability Freeze-thaw?
Response: 94.71

Query: Entry under review: CC(C)(O)[C@H]1Cc2cc3ccc(=O)oc3cc2O1 . Reported Stability Freeze-thaw?
Response: 98.18
